system: human PBMCs stimulated with LPS; experiment: LPS-induced cytokine release in human PBMCs; type: cell-based; settings: PBMC, 0.11 ng/mL LPS, 4 h, read-out: IC50, IL-6 read-out, LPS stimulation
RECORDED METRIC: IC50 (nM)
// return numeric value only (unit: nM, not printed)

Please report the recorded IC50 for COc1cc2nn([C@@H]3CC[C@@H](O)C[C@H]3C)cc2cc1C(=O)Nc1cnc2cccnn12 [Example 89] . 32

----------
The entries below are paired with their reported IC50.
Biological target: IRAK4 auto-phosphorylation (Homo sapiens (Human), UniProt Q9NWZ3)
Sequence (Q9NWZ3 whole entry): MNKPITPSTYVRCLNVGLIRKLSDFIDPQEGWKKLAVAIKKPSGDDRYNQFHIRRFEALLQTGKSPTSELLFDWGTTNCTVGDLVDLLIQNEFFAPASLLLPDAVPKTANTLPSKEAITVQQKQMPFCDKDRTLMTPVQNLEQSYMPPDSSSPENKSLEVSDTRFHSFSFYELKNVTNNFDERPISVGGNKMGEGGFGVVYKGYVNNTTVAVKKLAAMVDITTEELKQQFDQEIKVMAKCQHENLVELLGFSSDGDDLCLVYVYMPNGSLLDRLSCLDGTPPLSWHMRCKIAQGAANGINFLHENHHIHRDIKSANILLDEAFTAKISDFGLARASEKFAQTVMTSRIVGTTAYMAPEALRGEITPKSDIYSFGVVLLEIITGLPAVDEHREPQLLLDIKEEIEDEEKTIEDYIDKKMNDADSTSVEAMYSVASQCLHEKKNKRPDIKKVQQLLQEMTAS
Test: IRAK4 phosphorylation cell assay in IL-1β-stimulated Karpas-299 cells
Details: IL-1β 22.7 ng/mL, pIRAK4 (Thr345/Ser346), geometric mean of at least 2 experiments
Procedure: IRAK4 Phosphorylation Cell Assay The activation of IRAK4 by TLR or IL-1R ligands leads to IRAK4 auto-phosphorylation, which can be prevented by IRAK4 kinase inhibitors. The effect of IRAK4 inhibitor compounds on IRAK4 auto-phosphorylation was assessed in IL-1β-stimulated Karpas-299 cells as a measurement of cellular potency. […] Images were analysed in Columbus (PerkinElmer) and the fluorescence intensity per cell from the secondary antibody was quantified. […]
// return numeric value only (unit: nM, not printed)

Some solved entries appear below for comparison.
[
  {
    "MOLECULE": "COc1cc2nn([C@H]3CCC[C@](C)(O)C3)cc2cc1C(=O)Nc1cnn2cccnc12 (single isomer, unassigned) [Example 53]",
    "MEASURED ON": "IRAK4 auto-phosphorylation (Homo sapiens (Human), UniProt Q9NWZ3)",
    "UNIT SYMBOL": "nM",
    "RESULT": 49
  },
  {
    "MOLECULE": "COc1cc2nn([C@@H]3CC[C@H](O)C[C@H]3C)cc2cc1C(=O)Nc1cnc2cccnn12",
    "MEASURED ON": "IRAK4 auto-phosphorylation (Homo sapiens (Human), UniProt Q9NWZ3)",
    "UNIT SYMBOL": "nM",
    "RESULT": 44
  },
  {
    "MOLECULE": "COc1cc2nn([C@H]3CC[C@H](n4ccnn4)CC3)cc2cc1C(=O)Nc1cnc2cccnn12",
    "MEASURED ON": "IRAK4 auto-phosphorylation (Homo sapiens (Human), UniProt Q9NWZ3)",
    "UNIT SYMBOL": "nM",
    "RESULT": 19
  },
  {
    "MOLECULE": "COc1cc2nn([C@@H]3CC[C@H](O)[C@H](C)C3)cc2cc1C(=O)Nc1cnc2cccnn12 (single isomer, unassigned)",
    "MEASURED ON": "IRAK4 auto-phosphorylation (Homo sapiens (Human), UniProt Q9NWZ3)",
    "UNIT SYMBOL": "nM",
    "RESULT": 14
  },
  {
    "MOLECULE": "COc1cc2nn([C@H]3CCC[C@@H](O)[C@@H]3C)cc2cc1C(=O)Nc1cnc2cccnn12 (single isomer, unassigned) [Example 109]",
    "MEASURED ON": "IRAK4 auto-phosphorylation (Homo sapiens (Human), UniProt Q9NWZ3)",
    "UNIT SYMBOL": "nM",
    "RESULT": 15
  }
]

Would you kindly look at the next entry?
Please report the recorded IC50 for COc1cc2nn([C@H]3CC[C@H](O)C[C@@H]3C)cc2cc1C(=O)Nc1cnn2cccnc12 (single isomer, unassigned) [Example 38] . 186

----------
target: IRAK4 auto-phosphorylation (Homo sapiens (Human), UniProt Q9NWZ3); experiment: IRAK4 phosphorylation cell assay in IL-1β-stimulated Karpas-299 cells; settings: IL-1β 22.7 ng/mL, pIRAK4 (Thr345/Ser346), geometric mean of at least 2 experiments
RECORDED METRIC: IC50 (nM)
// return numeric value only (unit: nM, not printed)

Some solved entries appear below for comparison.
[
  {
    "COMPOUND": "COc1cc2nn([C@H]3CC[C@H](N(C)C(=O)N4CC[C@@H](O)C4)CC3)cc2cc1C(=O)Nc1cnc2cccnn12 [Example 117]",
    "UNIT SYMBOL": "nM",
    "RESULT": 22
  },
  {
    "COMPOUND": "COc1cc2nn([C@H]3CC[C@H](O)[C@H](C)C3)cc2cc1C(=O)Nc1cnc2cccnn12 (single isomer, unassigned) [Example 78]",
    "UNIT SYMBOL": "nM",
    "RESULT": 52
  },
  {
    "COMPOUND": "COc1cc2nn([C@H]3CC[C@H](O)C[C@@H]3C)cc2cc1C(=O)Nc1cnc2cccnn12 [Example 91]",
    "UNIT SYMBOL": "nM",
    "RESULT": 88
  }
]

Please report the recorded IC50 for COc1cc2nn([C@H]3CC[C@]4(CCC(=O)N4C)CC3)cc2cc1C(=O)Nc1cnc2cccnn12 [Example 2] . 124

Ok, now COc1cc2nn(C3CCC(N(C)C(=O)C4CC(O)C4)CC3)cc2cc1C(=O)Nc1cnn2cnccc12 (stereo not shown) [Example 98] 20

Ok, now COc1cc2nn([C@H]3CCC[C@@H](O)[C@@H]3C)cc2cc1C(=O)Nc1cnc2cccnn12 (single isomer, unassigned) [Example 108] 16

Ok, now COc1cc2nn(C3CCC(C)(O)CC3)cc2cc1C(=O)Nc1cnc2cccnn12 (single isomer, unassigned) [Example 48] 17

----------
The entries below are paired with their reported IC50.
molecular target: human recombinant IRAK4 protein (Homo sapiens (Human)); assay: IRAK4 enzyme assay (mass spectrometry readout); settings: 3 mM ATP, 0.2 nM enzyme; geometric mean of at least n=2, * single experiment
// return numeric value only (unit: nM, not printed)

Some solved entries appear below for comparison.
[
  {
    "MOLECULE": "COc1cc2nn([C@@H]3CCC(N(C)C(C)=O)C[C@H]3C)cc2cc1C(=O)Nc1cnn2cccnc12 (single isomer, unassigned) [Example 61]",
    "RECORDED METRIC": "IC50",
    "RESULT": 24.2
  },
  {
    "MOLECULE": "O=C(Nc1cnn2cccnc12)c1cc2cn(C3CCC4(CC3)CC(O)C4)nc2cc1OC1CC1 (single isomer, unassigned) [Example 47]",
    "RECORDED METRIC": "IC50",
    "RESULT": 0.5
  },
  {
    "MOLECULE": "CC(=O)N1CC2(CC[C@@H](n3cc4cc(C(=O)Nc5cnn6cccnc56)c(OC5CC5)cc4n3)[C@@H](C)C2)C1 (single isomer, unassigned) [Example 31]",
    "RECORDED METRIC": "IC50",
    "RESULT": 0.8
  },
  {
    "MOLECULE": "COc1cc2nn([C@H]3CC[C@H](O)C[C@@H]3C)cc2cc1C(=O)Nc1cnc2cccnn12",
    "RECORDED METRIC": "IC50",
    "RESULT": 2.3
  }
]

Please report the recorded IC50 for COc1cc2nn([C@@H]3CC[C@]4(CC(=O)N(C)C4)C[C@H]3C)cc2cc1C(=O)Nc1cnc2cccnn12 (relative stereo) [Example 73] . 3.2

Ok, now "COc1cc2nn([C@H]3CC[C@@H](C(=O)N(C)C)CC3)cc2cc1C(=O)Nc1cnc2cccnn12" 8.5

Ok, now COc1cc2nn(C3CCC(C)(O)CC3)cc2cc1C(=O)Nc1cnc2cccnn12 (single isomer, unassigned) [Example 48] 0.7

Ok, now "COc1cc2nn([C@H]3CC[C@@]4(CC3)CC(=O)N(C)C4)cc2cc1C(=O)Nc1cnc2cccnn12" 1.6

Ok, now "COc1cc2nn([C@H]3CC[C@H](N(C)C(=O)C[C@@H](C)O)CC3)cc2cc1C(=O)Nc1cnn2cccnc12" 0.9

Ok, now COc1cc2nn([C@@H]3CCC(N(C)C(C)=O)C[C@H]3C)cc2cc1C(=O)Nc1cnc2cccnn12 (single isomer, unassigned) [Example 36] 3.8

----------
target: human recombinant IRAK4 protein (Homo sapiens (Human), UniProt Q9NWZ3); assay: IRAK4 enzyme assay (mass spectrometry readout); conditions: 3 mM ATP, 0.2 nM enzyme; geometric mean of at least n=2, * single experiment
Sequence (Q9NWZ3 whole entry): as above
The entries below are paired with their reported IC50.
// return numeric value only (unit: nM, not printed)

Some solved entries appear below for comparison.
[
  {
    "COMPOUND": "COc1cc2nn([C@@H]3CC[C@]4(CC(=O)N(C)C4)C[C@H]3C)cc2cc1C(=O)Nc1cnc2cccnn12 (relative stereo) [Example 71]",
    "MEASURED ON": "human recombinant IRAK4 protein (Homo sapiens (Human), UniProt Q9NWZ3)",
    "UNIT SYMBOL": "nM",
    "IC50": 1.9
  },
  {
    "COMPOUND": "COc1cc2nn(C3CCC4(CC3)COC(=O)N4C)cc2cc1C(=O)Nc1cnc2cccnn12 (single isomer, unassigned) [Example 75]",
    "MEASURED ON": "human recombinant IRAK4 protein (Homo sapiens (Human), UniProt Q9NWZ3)",
    "UNIT SYMBOL": "nM",
    "IC50": 0.3
  },
  {
    "COMPOUND": "O=C(Nc1cnn2cccnc12)c1cc2cn(C3CCC4(CC3)CC(O)C4)nc2cc1OC1CC1 (single isomer, unassigned) [Example 46]",
    "MEASURED ON": "human recombinant IRAK4 protein (Homo sapiens (Human), UniProt Q9NWZ3)",
    "UNIT SYMBOL": "nM",
    "IC50": 0.6
  },
  {
    "COMPOUND": "O=C(Nc1cnn2cccnc12)c1cc2cn([C@H]3CCC[C@H](O)C3)nc2cc1OC1CC1 (single isomer, unassigned) [Example 19]",
    "MEASURED ON": "human recombinant IRAK4 protein (Homo sapiens (Human), UniProt Q9NWZ3)",
    "UNIT SYMBOL": "nM",
    "IC50": 1
  }
]

Please report the recorded IC50 for "COc1cc2nn([C@H]3CC[C@H](N(C)C(C)=O)CC3)cc2cc1C(=O)Nc1cnc2cccnn12" . 0.2
